- target.of.assay: GST-HS90A (Mus musculus)
- Construct: mouse Hsp90aa1 coding region in pGEX-4T-1, N-terminal GST fusion (tag kept), expressed in E. coli, purified, RED-NHS labelled
- test.method.notes: microscale thermophoresis, RED-NHS labelled protein
readout.label: Kd (µM)
# value in µM; strip the unit string

Which Kd value is on record for [NH2][Pt]([NH2])([Cl])[Cl] [cisplatin] ?
5.47

Hey, just so you know, these numbers are from paper PMC8632880.
